Exercise: state measured apparent KD of K4 kissing-loop reporter for each of the sequences provided.
Tested on: K4 kissing-loop RNA reporter;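 further: bound reporter read as fluorescence of individual clusters on recovered sequencing chips by microscopy, with normalized cluster intensities fitted with a binding model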
Assay: apparent KD of K4 kissing-loop reporter; higher = weaker reporter binding
Details: Eterna round: R107; input ligand: tryptophan 2.4 mM
One number for each entry, in nM.

[
  {
    "Sequence Content": "UUUCGGCUCUGAGGAUAUUCGGACAAAUAUAGUGAUGUUGUAUAAGGAGGAGGGUGUUGGCAGUGAGGAGAAGGCAGAGGAGGAU [#07 K4 FMN B Exclusion]",
    "Subject Of Test": "K4 kissing-loop RNA reporter",
    "Units": "nM",
    "apparent KD of K4 kissing-loop reporter": 214
  },
  {
    "Sequence Content": "AAGUGAUGUUGUAGUGAUGUUGUGAUGUUGCAGGAUAUAUAGUGAUGUAGAAGGGUAAGUACUGAUGUUGUUUGUGAGUGAUGUU [zrrszrmullin]",
    "Subject Of Test": "K4 kissing-loop RNA reporter",
    "Units": "nM",
    "apparent KD of K4 kissing-loop reporter": 76.2
  },
  {
    "Sequence Content": "GGGAAGGAGUGAUGUUUCUUCUGAAUUUCUAAGGAUAUACGAUGCGGUAGAAGGUAGAUGCCUUGCAGGAAAUGUUCACCACGCG [theeternabot_exclusion_KL_FMN_A_2]",
    "Subject Of Test": "K4 kissing-loop RNA reporter",
    "Units": "nM",
    "apparent KD of K4 kissing-loop reporter": 158
  },
  {
    "Sequence Content": "UCUAGUUCUACGGCCGCCACUAUCGAGCACGGGUAUUAGUGAUGUUGAGGUCGUGUCUCCCUCCCUAGGACCGGGUAGAUCUUAG [theeternabot_sameState_KL_Trp_B_4]",
    "Subject Of Test": "K4 kissing-loop RNA reporter",
    "Units": "nM",
    "apparent KD of K4 kissing-loop reporter": 557
  }
]

--- query ---
Entry AAGUGUGUGGCGGCCGCCACUAGAAUCCAGUGAUGUUGGAGAUAUCACGUAAGUGAUAUCCAACAUAGGACCGGGCCAUAUAGAA [Same State - Tryptophan B (Freestyle 12)] , apparent KD of K4 kissing-loop reporter reported as 95.5
